# Assay Protocol: Concentration of the test compound in plasma after evaluation in SNL rats
# Assay type: in vivo
# Assay Conditions: Wistar, rat, topical about 10 mg formulation, blood collected immediately after evaluation (2 hours after application)
Quantity: concentration at 2 h
Please make sure the unit comes right after the number.

In: Give reported concentration at 2 h value for CCn1c(CN[C@@H](C)C(N)=O)nc2ccc(Oc3ccc(C)cc3)cc21
Out: 25.2 ng/mL
